Target: Probable G-protein coupled receptor 142 (Homo sapiens)
Sequence (Q7Z601 whole entry): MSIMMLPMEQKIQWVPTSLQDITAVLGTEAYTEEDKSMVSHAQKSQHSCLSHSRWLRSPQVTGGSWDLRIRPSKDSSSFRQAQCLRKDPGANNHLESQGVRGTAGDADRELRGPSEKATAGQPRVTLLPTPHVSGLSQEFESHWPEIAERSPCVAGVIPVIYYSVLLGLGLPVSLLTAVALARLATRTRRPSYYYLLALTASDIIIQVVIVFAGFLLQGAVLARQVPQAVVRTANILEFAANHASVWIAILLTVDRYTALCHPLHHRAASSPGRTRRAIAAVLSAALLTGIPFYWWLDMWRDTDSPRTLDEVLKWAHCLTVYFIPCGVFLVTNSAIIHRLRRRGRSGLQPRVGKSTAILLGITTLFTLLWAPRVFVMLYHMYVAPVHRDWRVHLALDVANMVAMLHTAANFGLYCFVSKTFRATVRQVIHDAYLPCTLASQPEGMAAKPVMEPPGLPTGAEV
Test: Agonist activity at human GPR142 expressed in CHO cells measured for 3 mins by Fluo-4M dye based FLIPR assay
Settings: read-out: IC50 (the source's name)
pEC50: −log10 of the molar value.
Experimental endpoint: pEC50

O=C(Nc1cccc(Cl)c1)N1CCOc2ccc(-c3ccncc3)cc2C1 6.97
O=C(Nc1ccc(Cl)c(Cl)c1)N1CCNc2ccc(-c3ccncc3)cc2C1 6.84

====

Test: Oral bioavailability in rat at 2 mg/kg
Type: ADME, organism-based
Conditions: in vivo
Experimental endpoint: bioavailability (%)

O=C(Nc1cccc(Cl)c1)N1CCOc2ccc(-c3ccncc3)cc2C1 1
O=C(Nc1ccc(Cl)c(Cl)c1)N1CCOc2ccc(-c3ccncc3)cc2C1 6
FC(F)(F)Oc1cccc(Nc2nnc3n2CCOc2ccc(-c4ccncc4)cc2-3)c1 40

(I) Cc1cc(-c2ccc3c(c2)-c2nnc(Oc4cccc(Cl)c4F)n2CCO3)ccn1
(II) Cc1cc(-c2ccc3c(c2)-c2nnc(Nc4cccc(Cl)c4)n2CCO3)ccn1
(III) CCc1cc(-c2ccc3c(c2)-c2nnc(Nc4cccc(C(F)(F)F)c4)n2CCO3)ccn1
// sort entries: bioavailability, high to low Order the labels as requested and list them.
III, I, II

Cited source: ChEMBL document CHEMBL4715723
